Recorded values, source the supplement of paper PMC9233669.

Reported self-aminoacylation by item:
system: biotinyl-Val-oxazolone; assay: self-aminoacylation, catalytic enhancement (BVO) (fold over background); higher = more active; k-Seq, kA / k0A0; sequences stand for … in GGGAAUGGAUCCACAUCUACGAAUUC…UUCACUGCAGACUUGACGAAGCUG
This sample holds only a part of the variants without activity.

**Q:** Query (sequence): CUACUUCAUACAAUCGGUGUG [Fam1A.1 aminoacylation ribozyme variant] ; field requested: self-aminoacylation
**A:** 0.956

**Q:** And for AUUCACCUAGGGCAUCGCGUG [Fam2.2 aminoacylation ribozyme variant] ?
**A:** 3.89

**Q:** And for AUUAGCCUGGUCAUCGUGUGA [Fam2.1 aminoacylation ribozyme variant] ?
**A:** 2.07

Next:
**Q:** Query (sequence): AUUCCCCUAGGUCAUCGCGUG [Fam2.2 aminoacylation ribozyme variant] ; field requested: self-aminoacylation
**A:** 77.6

**Q:** And for AAGUCUGCUAAUAGUCGGAAG [Fam3.1 aminoacylation ribozyme variant] ?
**A:** 1.61

**Q:** And for AUUACAAUGGUCAUCGAGUGA [Fam2.1 aminoacylation ribozyme variant] ?
**A:** 3.54

**Q:** And for CUGCUUCAAACAAUCGGUUUG [Fam1A.1 aminoacylation ribozyme variant] ?
**A:** 2.1

---

system: biotinyl-Leu-oxazolone; assay: self-aminoacylation, catalytic enhancement (BLO) (fold over background); higher = more active; k-Seq, kA / k0A0; sequences stand for … in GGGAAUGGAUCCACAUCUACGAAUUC…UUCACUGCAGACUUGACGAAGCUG
Fewer inactive variants are shown than the library holds.
Reported self-aminoacylation by item:

Field: example entries. Status: answers known.
**Q:** Query (sequence): CUACUUCAAACAAACAGUCUG [Fam1A.1 aminoacylation ribozyme variant] ; field requested: self-aminoacylation
**A:** 0.671

**Q:** And for CUACUUUAAACAAUCGGUCUU [Fam1A.1 aminoacylation ribozyme variant] ?
**A:** 0.738

**Q:** And for CUACUUCAAACACUCCGUCUG [Fam1A.1 aminoacylation ribozyme variant] ?
**A:** 0.727

**Q:** And for ACUCACCUAGGUCAUCGAGUG [Fam2.2 aminoacylation ribozyme variant] ?
**A:** 4.67

**Q:** And for CUACGUCAAACAAUCGGUGUG [Fam1A.1 aminoacylation ribozyme variant] ?
**A:** 2.02

**Q:** And for CCACACUUCAAGCAAUAGUUC [Fam1B.1 aminoacylation ribozyme variant] ?
**A:** 0.55

**Q:** And for AAGUUUGCUAAUAGUCGUAAU [Fam3.1 aminoacylation ribozyme variant] ?
**A:** 1.07

**Q:** And for AUUCACCUAGGUUAUCGGGUA [Fam2.2 aminoacylation ribozyme variant] ?
**A:** 3.54

**Q:** And for AUUACCCUGGUCAUGGAGUGU [Fam2.1 aminoacylation ribozyme variant] ?
**A:** 2.73

**Q:** And for AUUUCCCUGGUCAUCGGGUGA [Fam2.1 aminoacylation ribozyme variant] ?
**A:** 21.5

Next:
**Q:** Query (sequence): CUACUUAAAACAGUCGGUCUG [Fam1A.1 aminoacylation ribozyme variant] ; field requested: self-aminoacylation
**A:** 1.05

**Q:** And for ACACACUUCAAGCAAUAGGUC [Fam1B.1 aminoacylation ribozyme variant] ?
**A:** 0.737
